The origin of these recorded values is patent US20260297085A1.

# tested system: Tyk2 kinase activity on STAT4 in NK92 cells (Homo sapiens, UniProt P29597)
# Sequence (P29597 whole entry): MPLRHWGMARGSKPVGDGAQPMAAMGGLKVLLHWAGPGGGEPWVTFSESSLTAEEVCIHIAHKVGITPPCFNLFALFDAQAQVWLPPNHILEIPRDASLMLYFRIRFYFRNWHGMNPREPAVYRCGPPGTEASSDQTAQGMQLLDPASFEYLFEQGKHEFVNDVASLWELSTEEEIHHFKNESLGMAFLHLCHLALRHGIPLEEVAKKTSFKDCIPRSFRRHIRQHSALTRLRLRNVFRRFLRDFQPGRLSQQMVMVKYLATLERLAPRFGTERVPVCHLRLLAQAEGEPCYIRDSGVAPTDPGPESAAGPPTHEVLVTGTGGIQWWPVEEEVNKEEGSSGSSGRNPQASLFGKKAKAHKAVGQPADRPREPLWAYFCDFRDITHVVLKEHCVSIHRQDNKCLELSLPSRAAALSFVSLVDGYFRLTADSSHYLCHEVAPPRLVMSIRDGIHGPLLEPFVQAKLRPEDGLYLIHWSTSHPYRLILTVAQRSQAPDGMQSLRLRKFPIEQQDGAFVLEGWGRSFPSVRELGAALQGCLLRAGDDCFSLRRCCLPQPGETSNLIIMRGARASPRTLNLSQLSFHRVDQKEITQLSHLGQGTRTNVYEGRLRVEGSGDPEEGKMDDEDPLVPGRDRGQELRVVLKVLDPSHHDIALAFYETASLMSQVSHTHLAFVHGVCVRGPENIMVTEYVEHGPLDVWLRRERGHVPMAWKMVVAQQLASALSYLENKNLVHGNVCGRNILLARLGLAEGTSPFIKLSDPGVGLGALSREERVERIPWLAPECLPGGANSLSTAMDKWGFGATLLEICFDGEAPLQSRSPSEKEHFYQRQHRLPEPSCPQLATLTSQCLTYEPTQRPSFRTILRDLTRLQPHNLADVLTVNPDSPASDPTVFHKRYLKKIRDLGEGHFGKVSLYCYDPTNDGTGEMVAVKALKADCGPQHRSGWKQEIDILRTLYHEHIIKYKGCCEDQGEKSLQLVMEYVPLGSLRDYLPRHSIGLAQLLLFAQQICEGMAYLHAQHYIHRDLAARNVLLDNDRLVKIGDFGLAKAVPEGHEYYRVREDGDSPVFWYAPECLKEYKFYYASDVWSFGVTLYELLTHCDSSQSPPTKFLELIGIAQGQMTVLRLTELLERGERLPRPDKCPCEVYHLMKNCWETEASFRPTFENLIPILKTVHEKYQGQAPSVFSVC
# experiment notes: pSTAT4 cell assay (MSD; NK92 cells, 30 ng/mL IL2 stimulation)
# condition label: 30 ng/mL IL2, 15 minutes
measure: IC50

Guide cases for IC50, answers given:
{"entry smiles": "Cn1cc(-c2cc3c(N4CC[C@@](C#N)(C5CC5)C4=O)ccnc3[nH]2)cn1", "result": "20 to 50 nM"}
{"entry smiles": "C[C@@H]1CN(c2ccnn3cc(-c4ccnc(F)c4)cc23)C(=O)[C@]1(C#N)C1CC1", "result": "> 100 nM"}
{"entry smiles": "CC(=O)Nc1cc(-c2cc3c(N4C[C@@H](C)[C@@](C#N)(C5CC5)C4=O)ccnn3c2)ccn1", "result": "20 to 50 nM"}
{"entry smiles": "Cc1c(-c2cn3ncc(F)c3c(N3C[C@@H](C)[C@@](C#N)(C4CC4)C3=O)n2)cnn1C", "result": "> 100 nM"}

Which value of IC50 has been reported for `C[C@@H]1CN(c2nc(-c3ccc(C#N)nc3)cn3nccc23)C(=O)[C@]1(C#N)C1CC1` in the records?
> 100 nM

How about `N#C[C@@]1(C2CC2)CCN(c2ccnn3cc(-c4cnn(C(F)F)c4)cc23)C1=O` ?
> 100 nM

Likewise for `C[C@@H]1CN(c2ccnn3cc(-c4ccc5c(cnn5C)c4)cc23)C(=O)[C@]1(C#N)C1CC1` ?
5 to 20 nM

Input `Cc1cc(-c2cc3c(N4C[C@@H](C)[C@@](C#N)(C5CC5)C4=O)ccnn3c2)ccn1`
50 to 100 nM

----------
pIC50 by entry:
# tested system: human JAK3 kinase domain (JH1) (Homo sapiens)
# Construct: recombinantly generated catalytic kinase (also known as JH1) domain of human JAK1, JAK2, JAK3 and TYK2
# Sequence (P52333 822-1111 limits assumed): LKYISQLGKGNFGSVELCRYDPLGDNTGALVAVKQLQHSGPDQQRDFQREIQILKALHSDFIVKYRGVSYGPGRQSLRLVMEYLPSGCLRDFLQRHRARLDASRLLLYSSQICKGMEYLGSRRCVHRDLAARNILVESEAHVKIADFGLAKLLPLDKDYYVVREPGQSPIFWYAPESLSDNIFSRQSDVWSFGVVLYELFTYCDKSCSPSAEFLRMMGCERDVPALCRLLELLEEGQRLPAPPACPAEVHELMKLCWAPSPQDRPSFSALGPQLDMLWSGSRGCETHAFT
# experiment notes: JH1 biochemical assay for JAK3 (ADP-Glo kinase assay, recombinant JH1 catalytic domain, JAK3-974 peptide, 4 μM ATP)
# condition label: JH1 kinase domain, ADP-Glo
pIC50: −log10 of the molar value.

Examples with answers:
{"compound": "C[C@@H]1CN(c2nc(-c3ccnc(C#N)c3)cn3nccc23)C(=O)[C@]1(C#N)C1CC1", "pIC50": "> 7.00"}
{"compound": "Cc1cnn2cc(-c3cnn(C)c3)nc(N3C[C@@H](C)[C@@](C#N)(C4CC4)C3=O)c12", "pIC50": "6.00 to 7.00"}
{"compound": "C[C@@H]1CN(c2ccnn3cc(-c4cnn([C@H]5CC5(F)F)c4)cc23)C(=O)[C@]1(C#N)C1CC1 (single isomer, unassigned)", "pIC50": "> 7.00"}

// pIC50 lookup, key: Cn1cc(-c2cc3c(N4C[C@@H](C(F)F)[C@@](C#N)(C5CC5)C4=O)ccnn3c2)cn1 (racemic)
5.30 to 6.00

Next record, please: `C[C@@H]1CN(c2ccnn3c(F)c(-c4cnn(C)c4)nc23)C(=O)[C@]1(C#N)C1CC1`
< 5.00

Please answer likewise for `CC(=O)Nc1cc(-c2cc3c(N4C[C@@H](C)[C@@](C#N)(C5CC5)C4=O)ccnn3c2)ccn1`
6.00 to 7.00

Then `C[C@@H]1CN(c2ccnn3cc(-c4cncc(F)c4)cc23)C(=O)[C@]1(C#N)C1CC1` ?
6.00 to 7.00
